Test system: Pseudomonas fluorescens HPPD polypeptide (wild-type and mutants)
Assay: Coupled HPPD activity assay: turnover and residual turnover in crude HPPD polypeptide extracts with and without Cmpd. 1
Format: biochemical
Conditions: 100 μM Cmpd. 1, normalised to turnover without inhibitor
Decision: Residual turnover [%] >= 50% yields yes (1), all other cases yield no (0).

[
  {
    "molecule": "SEQ ID NO:26 (protein, mutant HPPD polypeptide) MADLYENPMGLMGFEFIEFASPTPGTLEPIFEIMGFTKVATHRSKNVHLYRQGEINLILNNEPNSIASYFAAEHGPSVCGMAFRVKDSQKAYNRALELGAQPIHIDTGPMELNLPAIKGIGGAPLYLIDRFGEGSSIYDIDFVYLEGVERNPVGAGLKVIDHLTHNVYRGRMVYWANFYEKLFNFREARYFDIKGEYTGLTSKAMSAPDGMIRIPLNEESSKGAGQIEEFLMQFNGEGIQHVAFLTDDLVKTWDALKKIGMRFLTAPGDEYYEMLEGRLPDHGEPVDQLQARGILLDGSSVEGDKRLLLQIFSEQLMGPVFFEFIQRKGDDGFGPHSFKVLFESIERDQVRRGVLTAD",
    "answer_label": "yes (1)"
  },
  {
    "molecule": "SEQ ID NO:42 (protein, mutant HPPD polypeptide) MADLYENPMGLMGFEFIEFASPTPGTLEPIFEIMGFTKVATHRSKNVHLYRQGEINLILNNEPNSIASYFAAEHGPSVCGMAFRVKDSQKAYNRALELGAQPIHIDTGPMELNLPAIKGIGGAPLYLIDRFGEGSSIYDIDFVYLEGVERNPVGAGLKVIDHLTHNVYRGRMVYWANFYEKLFNFREARYFDIKGEYTGLTSKAMSAPDGMIKIPLNEESSKGAGQIEEFLMQFNGEGIQHVAFLTDDLVKTWDALKKIGMRFMTAPGDEYYEMLEGRLPDHGEPVDQLQARGILLDGSSVEGDKRLLLQIFSETLMGPVFFEFIQRKGDDGFGPDSFKVLFESMERDQVRRGVLTAD",
    "answer_label": "no (0)"
  },
  {
    "molecule": "SEQ ID NO:50 (protein, mutant HPPD polypeptide) MADLYENPMGLMGFEFIEFASPTPGTLEPIFEIMGFTKVATHRSKNVHLYRQGEINLILNNEPNSIASYFAAEHGPSVCGMAFRVKDSQKAYNRALELGAQPIHIDTGPMELNLPAIKGIGGAPLYLIDRFGEGSSIYDIDFVYLEGVERNPVGAGLKVIDHLTHNVYRGRMVYWANFYEKLFNFREARYFDIKGEYTGLTSKAMSAPDGMIKIPLNEESSKGAGQIEEFLMQFNGEGIQHVAFLTDDLVKTWDALKKIGMRFMTAPGDEYYEMLEGRLPDHGEPVDQLQARGILLDGSSVEGDKRLLLQIFSETLMGPVFFEFIQRKGDDGFGPHSFKVLFESIERDQVRRGVLTAD",
    "answer_label": "yes (1)"
  },
  {
    "molecule": "SEQ ID NO:39 (protein, mutant HPPD polypeptide) MADLYENPMGLMGFEFIEFASPTPGTLEPIFEIMGFTKVATHRSKNVHLYRQGEINLILNNEPNSIASYFAAEHGPSVCGMAFRVKDSQKAYNRALELGAQPIHIDTGPMELNLPAIKGIGGAPLYLIDRFGEGSSIYDIDFVYLEGVERNPVGAGLKVIDHLTHNVYRGRMVYWANFYEKLFNFREARYFDIKGEYTGLTSKAMSAPDGMIKIPLNEESSKGAGQIEEFLMQFNGEGIQHVAFLTDDLVKTWDALKKIGMRFMTAPGDEYYEMLEGRLPDHGEPVDQLQARGILLDGSSVEGDKRLLLQIFSEKLMGPVFFEFIQRKGDDGFGPDSFKVLFESMERDQVRRGVLTAD",
    "answer_label": "no (0)"
  },
  {
    "molecule": "SEQ ID NO:51 (protein, mutant HPPD polypeptide) MADLYENPMGLMGFEFIEFASPTPGTLEPIFEIMGFTKVATHRSKNVHLYRQGEINLILNNEPNSIASYFAAEHGPSVCGMAFRVKDSQKAYNRALELGAQPIHIDTGPMELNLPAIKGIGGAPLYLIDRFGEGSSIYDIDFVYLEGVERNPVGAGLKVIDHLTHNVYRGRMVYWANFYEKLFNFREARYFDIKGEYTGLTSKAMSAPDGMIRIALNEESSKGAGQIEEFLMQFNGEGIQHVAFLTDDLVKTWDALKKIGMRFMTAPGDEYYEMLEGRLPDHGEPVDQLQARGILLDGSSVEGDKRLLLQIFSEQLMGPVFFEFIQRKGDDGFGPHSFKVLFESIERDQVRRGVLTAD",
    "answer_label": "yes (1)"
  },
  {
    "molecule": "SEQ ID NO:69 (protein, mutant HPPD polypeptide) MADLYENPMGLMGFEFIEFASPTPGTLEPIFEIMGFTKVATHRSKNVHLYRQGEINLILNNEPNSIASYFAAEHGPSVCGMAFRVKDSQKAYNRALELGAQPIHIDTGPMELNLPAIKGIGGAPLYLIDRFGEGSSIYDIDFVYLEGVERNPVGAGLKVIDHLTHNVYRGRMVYWANFYEKLFNFREARYFDIKGEYTGLTSKAMSAPDGMIKIPLNEESSKGAGQIEEFLMQFNGEGIQHVAFLTDDLVKTWDALKKIGMRFMTAPGDEYYEMLEGRLPDHGEPVDQLQARGILLDGSSVEGDKRLLLQIFSEQLMGPVFFEFIQRKGDDGFGPDSFKVLFESIERDQVRRGVLTAD",
    "answer_label": "no (0)"
  },
  {
    "molecule": "SEQ ID NO:45 (protein, mutant HPPD polypeptide) MADLYENPMGLMGFEFIEFASPTPGTLEPIFEIMGFTKVATHRSKNVHLYRQGEINLILNNEPNSIASYFAAEHGPSVCGMAFRVKDSQKAYNRALELGAQPIHIDTGPMELNLPAIKGIGGAPLYLIDRFGEGSSIYDIDFVYLEGVERNPVGAGLKVIDHLTHNVYRGRMVYWANFYEKLFNFREARYFDIKGEYTGLTSKAMSAPDGMIKIPLNEESSKGAGQIEEFLMQFNGEGIQHVAFLTDDLVKTWDALKKIGMRFMTAPGDEYYEMLEGRLPDHGEPVDQLQARGILLDGSSVEGDKRLLLQIFSETLMGPVFFEFIQRKGDDGFGPHSFKVLFESMERDQVRRGVLTAD",
    "answer_label": "yes (1)"
  }
]

From: patent US11371056B2
